These measurements were taken from paper PMC12416549.

Provide the reported apparent Kd (screen) of each item.
# SYSTEM_TESTED: T1, TNFR1 (Homo sapiens, UniProt P19438)
# T1 chain: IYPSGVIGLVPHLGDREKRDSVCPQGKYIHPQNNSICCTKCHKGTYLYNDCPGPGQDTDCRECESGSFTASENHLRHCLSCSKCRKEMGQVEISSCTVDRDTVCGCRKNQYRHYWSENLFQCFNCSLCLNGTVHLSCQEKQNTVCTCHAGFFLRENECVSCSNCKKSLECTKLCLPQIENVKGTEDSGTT
# PROTOCOL_DESCRIPTION: yeast display SC50
Answers are plain numbers, in nM.

BINDER: R50Y (designed binder) MTLQELLREEALRRAEAEAFRYALELLAEKFPEQKEYLLDLAEEIESQIYSLSGVDVEDVRKFLDKEWAWVKELLAEHPAELAEVEAARAARLAELRAEVEAKVAA
PROPERTY_MEASURED: apparent Kd (screen)
RECORDED_VALUE: 0.539
--
BINDER: L75K (designed binder) MTLQELLREEALRRAEAEAFRYALELLAEKFPEQKEYLLDLAEEIESQIRSLSGVDVEDVRKFLDKEWAWVKELKAEHPAELAEVEAARAARLAELRAEVEAKVAA
PROPERTY_MEASURED: apparent Kd (screen)
RECORDED_VALUE: 0.593
--
BINDER: R61N (designed binder) MTLQELLREEALRRAEAEAFRYALELLAEKFPEQKEYLLDLAEEIESQIRSLSGVDVEDVNKFLDKEWAWVKELLAEHPAELAEVEAARAARLAELRAEVEAKVAA
PROPERTY_MEASURED: apparent Kd (screen)
RECORDED_VALUE: 1.86
--
BINDER: L27I (designed binder) MTLQELLREEALRRAEAEAFRYALELIAEKFPEQKEYLLDLAEEIESQIRSLSGVDVEDVRKFLDKEWAWVKELLAEHPAELAEVEAARAARLAELRAEVEAKVAA
PROPERTY_MEASURED: apparent Kd (screen)
RECORDED_VALUE: 1.27

Specify reported apparent Kd (screen) for the binder shown: A88R (designed binder) MTLQELLREEALRRAEAEAFRYALELLAEKFPEQKEYLLDLAEEIESQIRSLSGVDVEDVRKFLDKEWAWVKELLAEHPAELAEVEARRAARLAELRAEVEAKVAA 0.593
